- TESTED ON: prohormone convertase 2 (PC2) (Mus musculus, UniProt P21661)
- Construct: Recombinant PC2
- Sequence (P21661 109-637): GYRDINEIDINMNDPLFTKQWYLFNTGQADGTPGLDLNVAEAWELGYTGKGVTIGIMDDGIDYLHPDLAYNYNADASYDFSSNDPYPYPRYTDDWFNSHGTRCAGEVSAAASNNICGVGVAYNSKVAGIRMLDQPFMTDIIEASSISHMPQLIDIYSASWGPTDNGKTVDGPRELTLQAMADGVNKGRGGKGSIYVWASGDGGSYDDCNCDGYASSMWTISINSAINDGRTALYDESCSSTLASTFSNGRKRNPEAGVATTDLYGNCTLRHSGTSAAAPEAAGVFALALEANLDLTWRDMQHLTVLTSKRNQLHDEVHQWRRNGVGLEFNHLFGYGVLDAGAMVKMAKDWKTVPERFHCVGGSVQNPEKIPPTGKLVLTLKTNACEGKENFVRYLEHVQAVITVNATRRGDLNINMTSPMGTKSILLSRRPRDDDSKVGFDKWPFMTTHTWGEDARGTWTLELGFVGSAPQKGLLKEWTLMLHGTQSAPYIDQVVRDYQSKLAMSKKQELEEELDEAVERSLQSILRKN
- PROTOCOL DESCRIPTION: fluorogenic enzyme assay with pERTKR-amc, IC50 and inhibition kinetics
OBSERVABLE: Ki (nM)
Number only, in nM; omit the unit.

Would you mind telling me what Ki value was observed for OC[C@@H](O)[C@H](O)[C@H](O)[C@@H](O)[C@@H]1NCCS1 ? 690
